meta.source: ChEMBL document CHEMBL4052716

# assay-target: Transient receptor potential cation channel subfamily M member 8 (Homo sapiens, UniProt Q7Z2W7)
# Sequence (Q7Z2W7 whole entry, looked up): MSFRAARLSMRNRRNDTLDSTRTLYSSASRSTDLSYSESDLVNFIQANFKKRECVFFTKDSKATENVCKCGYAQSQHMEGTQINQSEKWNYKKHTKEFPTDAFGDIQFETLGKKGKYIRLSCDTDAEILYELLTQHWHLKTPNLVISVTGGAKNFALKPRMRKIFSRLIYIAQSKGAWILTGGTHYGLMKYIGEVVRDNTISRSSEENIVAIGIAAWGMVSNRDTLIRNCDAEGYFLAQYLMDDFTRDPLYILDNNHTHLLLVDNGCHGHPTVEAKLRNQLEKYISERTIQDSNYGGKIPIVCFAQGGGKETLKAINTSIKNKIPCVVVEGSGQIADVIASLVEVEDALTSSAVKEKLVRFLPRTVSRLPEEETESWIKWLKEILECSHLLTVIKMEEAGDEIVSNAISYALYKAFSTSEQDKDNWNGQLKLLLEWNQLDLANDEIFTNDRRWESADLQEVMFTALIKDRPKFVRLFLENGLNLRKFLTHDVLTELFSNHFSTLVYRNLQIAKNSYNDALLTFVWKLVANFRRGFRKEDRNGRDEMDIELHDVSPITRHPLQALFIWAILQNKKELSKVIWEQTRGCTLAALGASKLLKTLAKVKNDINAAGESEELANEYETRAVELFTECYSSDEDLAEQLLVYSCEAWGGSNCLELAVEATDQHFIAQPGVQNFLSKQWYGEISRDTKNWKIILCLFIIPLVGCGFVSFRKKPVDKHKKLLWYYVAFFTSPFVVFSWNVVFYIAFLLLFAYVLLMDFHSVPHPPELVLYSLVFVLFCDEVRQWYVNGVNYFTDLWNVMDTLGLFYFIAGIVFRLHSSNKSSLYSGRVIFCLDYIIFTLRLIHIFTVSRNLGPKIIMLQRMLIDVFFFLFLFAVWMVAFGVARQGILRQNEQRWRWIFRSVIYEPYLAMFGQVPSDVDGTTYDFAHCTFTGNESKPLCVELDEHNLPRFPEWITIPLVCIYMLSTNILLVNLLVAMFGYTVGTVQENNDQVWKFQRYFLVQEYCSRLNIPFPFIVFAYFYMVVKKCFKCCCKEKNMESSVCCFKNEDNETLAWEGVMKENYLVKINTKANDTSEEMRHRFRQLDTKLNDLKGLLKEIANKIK
# test-protocol: Potency index, ratio of WS-3 EC50 to compound EC50 for human TRPM8 receptor
Mark N for Ratio EC50 values under 20, and Y for everything at or above.

[[record]]
compound = "CCN(Cc1cccs1)C(=O)c1cc2cc(C)ccc2o1"
class_assignment = "Y"

[[record]]
compound = "CCN(Cc1cccs1)C(=O)COc1ccc2c(c1)CCC2"
class_assignment = "Y"

[[record]]
compound = "CCCc1ccc(OCC(=O)N(CC)Cc2cccs2)cc1"
class_assignment = "N"

[[record]]
compound = "CCN(Cc1cccs1)C(=O)COc1ccc2c(c1)COC2"
class_assignment = "Y"


Q: Assess whether reported Ratio EC50 for CCN(Cc1cccs1)C(=O)COc1ccc(C(F)(F)F)cc1 sits at 20 or higher.
Ans: N

Q: Tell me whether Ratio EC50 is at least 20 here: CCN(Cc1cccs1)C(=O)C(C)Oc1ccc(C)cc1 (stereo unspecified)
Ans: N

Q: Dear colleague, could you confirm whether CCN(Cc1cccs1)C(=O)COc1ccc(Cl)cc1 has Ratio EC50 at or above 20?
Ans: Y

Q: Reported Ratio EC50 at or above 20? Cc1ccc(OCC(=O)N(Cc2cccs2)C(C)(C)C)cc1
Ans: N

Q: # bool: Ratio EC50 of O=C(COc1ccc2c(c1)OCO2)N(Cc1cccs1)c1ccn[nH]1 >= 20
Ans: Y

Q: # check: Ratio EC50 of CCN(Cc1cccs1)C(=O)COc1ccc(OC)cc1 is greater than or equal to 20
Ans: Y

Q: Could you verify whether the entry CCC(C)N(Cc1cccs1)C(=O)COc1ccc(C)cc1 (stereo unspecified) shows Ratio EC50 of no less than 20?
Ans: N

Q: Hi team, for Cc1ccc(OCC(=O)N(C)Cc2cccs2)cc1 , is the recorded Ratio EC50 at or above 20?
Ans: N

Q: Could you verify whether the entry Cc1ccc(OCC(=O)N(Cc2cccs2)c2ccccn2)cc1 shows Ratio EC50 of no less than 20?
Ans: Y

Q: Decide: Ratio EC50 of CCN(Cc1cccs1)C(=O)C(C)(C)Oc1ccc(C)cc1 >= 20?
Ans: N

Q: Has Cc1ccc(OCC(=O)N(Cc2cccs2)c2ncccn2)cc1 a recorded Ratio EC50 greater than or equal to 20?
Ans: N

Q: Dear colleague, could you confirm whether Cc1ccc(OCC(=O)N(Cc2cccs2)c2cnn(C)c2)cc1 has Ratio EC50 at or above 20?
Ans: N

Q: Does CCN(Cc1cccs1)C(=O)COc1ccccc1C have a reported Ratio EC50 of at least 20?
Ans: N

Q: Kindly determine if Ratio EC50 recorded for CCN(Cc1cccs1)C(=O)COc1ccc(CO)cc1 is above or exactly 20.
Ans: N

Q: Is Ratio EC50 at least 20? Consider Cc1ccc(OCC(=O)N(Cc2cccs2)c2nccs2)cc1
Ans: N

Q: hey, is Ratio EC50 for this one >= 20? CCN(Cc1ccoc1)C(=O)COc1ccc(C)cc1
Ans: Y

Q: Please check the record CCN(Cc1cccs1)C(=O)COc1ccc(C(C)C)cc1 and state if its Ratio EC50 is at or above 20.
Ans: N

Q: Check the entry Cc1ccc(OCC(=O)N(CCO)Cc2cccs2)cc1 : does Ratio EC50 equal or exceed 20?
Ans: N

Q: Given CCN(Cc1ccccn1)C(=O)COc1ccc(C)cc1 , state whether its Ratio EC50 is at least 20.
Ans: N
